I'd appreciate it if you could supply log10 Ki values for the items below.
- target_under_test: κ-OR (Homo sapiens, UniProt P41145)
- Construct: purchased PerkinElmer (Krakow, Poland); host or cells: CHO cells (membranes)
- Sequence (P41145 whole entry): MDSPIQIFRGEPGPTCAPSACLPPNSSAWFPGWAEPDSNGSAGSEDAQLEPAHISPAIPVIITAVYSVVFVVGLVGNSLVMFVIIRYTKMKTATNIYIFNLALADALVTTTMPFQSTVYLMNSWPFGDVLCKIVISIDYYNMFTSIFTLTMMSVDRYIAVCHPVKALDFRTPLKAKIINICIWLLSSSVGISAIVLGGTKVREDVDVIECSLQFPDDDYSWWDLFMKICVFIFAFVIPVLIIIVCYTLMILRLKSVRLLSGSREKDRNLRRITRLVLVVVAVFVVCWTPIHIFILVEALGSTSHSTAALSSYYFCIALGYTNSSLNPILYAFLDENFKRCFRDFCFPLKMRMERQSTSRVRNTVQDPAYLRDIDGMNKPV
- method_summary: Radioligand binding assay, κ-OR ([3H]U-69593 displacement)
- experimental_setup: [3H]U-69593, membranes of CHO cells with human recombinant OR; ± SEM (n ≥ 3)
Hey, these are logged values: log10 of Ki, µM being the unit before logging.

Req: Record request: log10 Ki value, item Nc1ccc(CN(Cc2ccc(O)cc2)C(=O)Cc2c[nH]c3ccccc23)cc1
Resp: 0.58

Req: Record request: log10 Ki value, item Nc1ccc(CC(=O)N(CCc2c[nH]c3ccccc23)Cc2ccccc2)cc1
Resp: 0.40

Req: Record request: log10 Ki value, item Nc1ccc(CN(CCCO)C(=O)Cc2c[nH]c3ccccc23)cc1
Resp: 0.58

Req: Record request: log10 Ki value, item O=C(CCc1ccc(O)cc1)N(CCc1c[nH]c2ccccc12)Cc1ccccc1
Resp: 0.70

Req: Record request: log10 Ki value, item NC(=O)CN(Cc1ccc(N)cc1)C(=O)Cc1c[nH]c2ccccc12
Resp: 1.43

Req: Record request: log10 Ki value, item Nc1ccc(CNC(=O)Cc2c[nH]c3ccccc23)cc1
Resp: 0.87

Req: Record request: log10 Ki value, item Nc1ccc(CC(=O)Nc2ccc(CC(=O)N(CCc3c[nH]c4ccccc34)Cc3ccccc3)cc2)cc1
Resp: 0.89

###

I'd appreciate it if you could supply IC50 values for the items below.
- Test system: I407 (human embryonic intestinal) cells
- method_summary: MTT viability assay, I407
- Type: cell-based
- experimental_setup: Homo sapiens, 24 h, normal cells

Req: Record request: IC50 value, item Nc1ccc(CNC(=O)Cc2c[nH]c3ccccc23)cc1
Resp: > 500 µM

Req: Record request: IC50 value, item Nc1ccc(CC(=O)N(CCc2c[nH]c3ccccc23)Cc2ccccc2)cc1
Resp: 0.35 µM

Req: Record request: IC50 value, item Nc1ccc(CC(=O)Nc2ccc(CC(=O)N(CCc3c[nH]c4ccccc34)Cc3ccccc3)cc2)cc1
Resp: 75 µM

Req: Record request: IC50 value, item Nc1ccc(CN(CCCO)C(=O)Cc2c[nH]c3ccccc23)cc1
Resp: > 500 µM

Req: Record request: IC50 value, item O=C(CCc1ccc(O)cc1)N(CCc1c[nH]c2ccccc12)Cc1ccccc1
Resp: 63 µM

Req: Record request: IC50 value, item NC(=O)CN(Cc1ccc(N)cc1)C(=O)Cc1c[nH]c2ccccc12
Resp: > 500 µM

Req: Record request: IC50 value, item Nc1ccc(CN(Cc2ccc(O)cc2)C(=O)Cc2c[nH]c3ccccc23)cc1
Resp: > 500 µM

###

I'd appreciate it if you could supply Ki values for the items below.
- target_under_test: δ-OR (Homo sapiens, UniProt P41143)
- Construct: purchased PerkinElmer (Krakow, Poland); host or cells: CHO cells (membranes)
- Sequence (P41143 whole entry): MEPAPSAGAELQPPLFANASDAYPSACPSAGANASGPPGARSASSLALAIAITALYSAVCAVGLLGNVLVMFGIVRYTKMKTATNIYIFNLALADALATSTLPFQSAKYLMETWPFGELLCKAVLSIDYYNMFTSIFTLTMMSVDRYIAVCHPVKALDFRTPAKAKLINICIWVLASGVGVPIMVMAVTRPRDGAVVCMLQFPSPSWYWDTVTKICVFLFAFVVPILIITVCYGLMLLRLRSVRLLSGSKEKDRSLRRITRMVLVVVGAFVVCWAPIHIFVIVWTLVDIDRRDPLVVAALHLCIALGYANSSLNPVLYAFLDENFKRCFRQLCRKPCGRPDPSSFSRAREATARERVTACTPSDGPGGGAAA
- method_summary: Radioligand binding assay, δ-OR ([3H]deltorphin-2 displacement)
- experimental_setup: [3H]deltorphin-2, membranes of CHO cells with human recombinant OR; ± SEM (n ≥ 3)
Unit µM implied. Number only.

Req: Record request: Ki value, item Nc1ccc(CN(Cc2ccc(O)cc2)C(=O)Cc2c[nH]c3ccccc23)cc1 [Compound 5]
Resp: 10.8

Req: Record request: Ki value, item Nc1ccc(CC(=O)N(CCc2c[nH]c3ccccc23)Cc2ccccc2)cc1 [Compound 2]
Resp: 9

Req: Record request: Ki value, item O=C(CCc1ccc(O)cc1)N(CCc1c[nH]c2ccccc12)Cc1ccccc1 [Compound 1]
Resp: 37.1

Req: Record request: Ki value, item Nc1ccc(CC(=O)Nc2ccc(CC(=O)N(CCc3c[nH]c4ccccc34)Cc3ccccc3)cc2)cc1 [Compound 3]
Resp: 6.5

Req: Record request: Ki value, item NC(=O)CN(Cc1ccc(N)cc1)C(=O)Cc1c[nH]c2ccccc12 [Compound 6]
Resp: 85.5

Req: Record request: Ki value, item Nc1ccc(CN(CCCO)C(=O)Cc2c[nH]c3ccccc23)cc1 [Compound 7]
Resp: 115
